assay: amyloid nucleation score (Sup35N fusion, yeast selection) (log enrichment); library NNK1; higher = more nucleation; inactive = no reads after selection;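 note: zero at mode of non-aggregating sequences after 7 days selection at 30°C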
Lab note: anything with amyloid nucleation score at or over 0.4 counts as YES; the rest go in NO.

| Substance | Assigned Category |
| --- | --- |
| LLLLHLWLALRGLSDCSSHV | YES |
| LLRFTCSILLRA | YES |

q: Quick check: does NGQRDIEYLSLFSPVGTMNS have amyloid nucleation score greater than or equal to 0.4?
a: NO

q: Is it the case that TVTGIAKFHVVSQANY has amyloid nucleation score reaching or exceeding 0.4?
a: NO

q: Say whether YVWMSDPSVTNHRGRLVDMG shows amyloid nucleation score of 0.4 or more.
a: YES

q: For this substance, is measured amyloid nucleation score 0.4 or higher? LMFGRKCMLSLFPVRFHRCH
a: NO

q: Quick check: does YSSNWIMLIIRVMIHFFSSR have amyloid nucleation score greater than or equal to 0.4?
a: YES

###

experiment: amyloid nucleation score (Sup35N fusion, yeast selection) (log enrichment); library NNK3; higher = more nucleation; inactive = no reads after selection
Measured Metric: amyloid nucleation score

Consider the reported amyloid nucleation score for these substances:
| Substance | amyloid nucleation score |
| --- | --- |
| LIYYCEHHARLSVLLDESSA | inactive |
| HCFFDFAYLTRCSSLRSKRC | inactive |
| INLLVSVKGWYYVAPTAWYE | 1.16 |
| LSFFGSYSSSRLF | 1.43 |
| SERYEEMTFSDGYMFSRDDL | inactive |

q: Provide only the value of recorded amyloid nucleation score for EKWQKDLSNKHVRNAVVAWS
a: inactive

q: Please report amyloid nucleation score for the following substance: IIPKRLDVR
a: -0.397

q: Please list amyloid nucleation score recorded for the substance SQPDCFNICDLHGRSSCVSK
a: inactive

q: Specify measured amyloid nucleation score for CAVALLNHRG .
a: inactive

q: Determine its reported amyloid nucleation score: LEWERPS
a: inactive

q: Quick one: give measured amyloid nucleation score for ERDFLF
a: inactive

###

Here the recorded amyloid nucleation score is given for each entry.
assay: amyloid nucleation score (Sup35N fusion, yeast selection) (log enrichment); library NNK2; higher = more nucleation; inactive = no reads after selection
# print the numeric value only

Known amyloid nucleation score results, listed for orientation:
| Substance | Measured Metric | Measured Result |
| --- | --- | --- |
| PGSVWFSLTSMHE | amyloid nucleation score | 0.623 |
| YCRHIAVECSVGLHWHGGTV | amyloid nucleation score | 3.26 |
| NRFAHNALVAL | amyloid nucleation score | 4.08 |
| LFERFWFIL | amyloid nucleation score | 0.187 |
| VDILGMGRNHM | amyloid nucleation score | -1.04 |
| HGDAKFGSVVGAFQDLYS | amyloid nucleation score | 1.29 |

q: Tell me measured amyloid nucleation score for VRRMRG please.
a: 1.18

q: Provide amyloid nucleation score value for the following substance: FVSSII
a: -1.29

q: Given the substance DNVLYHPDGFGMISALTGVV , write its reported amyloid nucleation score.
a: -0.753

q: Answer with reported amyloid nucleation score of NLSVHAENLDNNRSGAEV
a: -0.102

q: Tell us which amyloid nucleation score value is on record for AVAVACLDH
a: 0.713

q: Return the recorded amyloid nucleation score value; entry: QTYMPTFCYITFLECWSDKG
a: 7.68

q: Recall and state the measured amyloid nucleation score for MIWNCTVFFLGDGAPLCGLC .
a: 8.5

q: Please give the documented amyloid nucleation score of YNISDLSMSYMAIRAYDSGS
a: -1.38

q: Look up and report measured amyloid nucleation score for this entry: CIINNKIQVAVKNDYLDHRE
a: 4.69

q: Provide measured amyloid nucleation score value, entry: DEIVSERDIVSSNRLCGSIM
a: -0.561

q: Give the value of amyloid nucleation score reported for the following: TKDERFV
a: 0.218

q: Provide one value: measured amyloid nucleation score of GPIWCRS
a: -0.467

q: Please give measured amyloid nucleation score of the following entry: EFMNDVIILIYLSFKRTILN
a: -0.541

q: State, in one line, measured amyloid nucleation score of FGYFNVHSKSSGIMKWCGQC
a: -0.612

q: Hello, please tell me recorded amyloid nucleation score for this one: VLINEHYGYRFFCFNCADGK
a: 8.23

q: Provide only the value of recorded amyloid nucleation score for SCMSFVLKFPQTLSVWVCWG
a: 4.97

q: Note amyloid nucleation score for the substance shown: PRLYTPILYCLLTRCKVYTT
a: 3.41

q: Give the reported amyloid nucleation score for this substance. SRTDRLDGCAWLLYDCTMGD
a: -0.211

q: # return recorded amyloid nucleation score for entry RVGQSIYMPPLRNGRAGVKW
a: 1.21

q: Check the records and state amyloid nucleation score for RDWQYRIYVQCNR
a: 2.17
